Target: Dual specificity tyrosine-phosphorylation-regulated kinase 1A (Rattus norvegicus, UniProt Q63470)
Protocol description: Inhibition of rat recombinant GST-tagged DYRK1A using myelin protein as substrate and [gamma32]-ATP after 30 mins by scintillation counting
Endpoint label: pIC50
Hey, just a heads up that pIC50 is the negative log base 10 of the concentration in molar.

Entry Nc1ncc(I)c(-c2c[nH]c3c(Br)cccc23)n1 : reported pIC50 = ?
7.41

Entry Nc1ccc2[nH]cc(-c3nc(N)ncc3I)c2c1 : reported pIC50 = ?
5.64

Entry Nc1ncc(I)c(-c2c[nH]c3ccc(Br)cc23)n1 : reported pIC50 = ?
6.48

Entry CC(=O)Nc1ccc(-c2cnc(N)nc2-c2c[nH]c3c(Br)cccc23)cc1 : reported pIC50 = ?
6.72

Entry COc1cccc(-c2cnc(N)nc2-c2c[nH]c3cccc(Br)c23)c1 : reported pIC50 = ?
6.09

Entry Nc1ncc(-c2ccc(C(F)(F)F)cc2)c(-c2c[nH]c3c(Br)cccc23)n1 : reported pIC50 = ?
5.90

Entry Nc1ncc(I)c(-c2c[nH]c3cccc(N)c23)n1 : reported pIC50 = ?
5.55

Entry Nc1ccc2c(-c3nc(N)ncc3I)c[nH]c2c1 : reported pIC50 = ?
6.66

Entry CC(=O)Nc1ccc(-c2cnc(N)nc2-c2c[nH]c3cc(Br)ccc23)cc1 : reported pIC50 = ?
5.51
